tested on: E. coli strain K12; assay: Checkerboard assay, FICI of cannabinoid/silver combinations; format: cell-based, Escherichia coli; settings: cannabinoid with silver sulfate
Experimental readout: interaction (interpretation of FICI)

Molecule: C=C(C)[C@@H]1CCC(C)=C[C@H]1c1c(O)cc(CCCCC)c(C(=O)O)c1O
Experimental readout: interaction (interpretation of FICI)
Recorded value: potentiation
--
Molecule: CCCCCc1cc(O)c(C/C=C(\C)CCC=C(C)C)c(O)c1
Experimental readout: interaction (interpretation of FICI)
Recorded value: not observed
--
Molecule: C=C(C)[C@@H]1CCC(C)=C[C@H]1c1c(O)cc(CCCCC)cc1O [CBD, cannabidiol, reference compound]
Experimental readout: interaction (interpretation of FICI)
Recorded value: not observed
--
Molecule: CCCCCc1cc(O)c(C/C=C(\C)CCC=C(C)C)c(O)c1C(=O)O
Experimental readout: interaction (interpretation of FICI)
Recorded value: potentiation
--
Molecule: CCCCCc1cc(O)c2c(c1)OC(C)(CCC=C(C)C)C=C2 (stereo not drawn)
Experimental readout: interaction (interpretation of FICI)
Recorded value: potentiation

---

system: E. coli strain K12; experiment: Checkerboard assay, FICI of cannabinoid/silver combinations; format: cell-based, Escherichia coli; details: Silver Sulfate in combination with the cannabinoid

Compound: CCCCCc1cc(O)c(C/C=C(\C)CCC=C(C)C)c(O)c1
FICI Silver Sulfate: 1

Compound: C=C(C)[C@@H]1CCC(C)=C[C@H]1c1c(O)cc(CCCCC)c(C(=O)O)c1O
FICI Silver Sulfate: 0.52

Compound: CCCCCc1cc2c(c(O)c1C(=O)O)C=CC(C)(CCC=C(C)C)O2 (stereo not drawn)
FICI Silver Sulfate: 0.50

Compound: CCCCCc1cc(O)c2c(c1)OC(C)(CCC=C(C)C)C=C2 (stereo not drawn)
FICI Silver Sulfate: 0.63

Compound: CCCCCc1cc(O)c(C/C=C(\C)CCC=C(C)C)c(O)c1C(=O)O
FICI Silver Sulfate: 0.75

Compound: C=C(C)[C@@H]1CCC(C)=C[C@H]1c1c(O)cc(CCCCC)cc1O [CBD, cannabidiol, reference compound]
FICI Silver Sulfate: 1

---

A collection of compounds and their measured FICI
system: MRSA (USA300); assay: Checkerboard assay, FICI of cannabinoid/silver combinations; assay type: cell-based, Methicillin-resistant Staphylococcus aureus; conditions: Silver Nitrate in combination with the cannabinoid
Experimental readout: FICI

Compound: CCCCCc1cc(O)c(C/C=C(\C)CCC=C(C)C)c(O)c1C(=O)O
Recorded value: 0.53
//
Compound: CCCCCc1cc(O)c2c(c1)OC(C)(CCC=C(C)C)C=C2 (stereo not drawn)
Recorded value: 0.375
//
Compound: CCCCCc1cc2c(c(O)c1C(=O)O)C=CC(C)(CCC=C(C)C)O2 (stereo not drawn)
Recorded value: 2
//
Compound: C=C(C)[C@@H]1CCC(C)=C[C@H]1c1c(O)cc(CCCCC)cc1O [CBD, cannabidiol, reference compound]
Recorded value: 2
//
Compound: C=C(C)[C@@H]1CCC(C)=C[C@H]1c1c(O)cc(CCCCC)c(C(=O)O)c1O
Recorded value: 2
//
Compound: CCCCCc1cc(O)c(C/C=C(\C)CCC=C(C)C)c(O)c1
Recorded value: 0.625
